Numbers sourced from paper PMC10453993.

# target_or_system: recombinant SARS-CoV-2 3CLpro (Severe acute respiratory syndrome coronavirus 2)
# experiment_notes: cell-based
Catalogue of compounds with associated IC50
Respond with the bare value in nM.

Illustrative cases are given below, each with its answer.
[
  {
    "compound": "COc1ccc(N(Cc2cc(Cl)cs2)C(=O)Cc2cncc3ccccc23)cc1 [C2]",
    "test_result": 600
  },
  {
    "compound": "CSc1ccc(N(Cc2cc(Cl)cs2)C(=O)Cc2cncc3ccccc23)cc1 [C4]",
    "test_result": 600
  }
]

Fill blank: measured IC50 of the compound CC(C)(C)c1ccc(N(Cc2cc(Cl)cs2)C(=O)Cc2cncc3ccccc23)cc1 [C3] is ____.
1200

----------
# target_or_system: recombinant SARS-CoV-2 3CLpro (Severe acute respiratory syndrome coronavirus 2, UniProt P0DTD1)
# experiment_notes: biochemical
measure_name: pIC50
# pIC50 is unitless: minus log10 of the molar concentration; print number only

Take a look at these entries with their results.
[
  {
    "compound": "CC(C)(C)c1ccc(N(Cc2cc(Cl)cs2)C(=O)Cc2cncc3ccccc23)cc1 [C3]",
    "pIC50": 5.30
  },
  {
    "compound": "C=CCC(c1cc(Cl)cs1)N(C(=O)Cc1cncc2ccccc12)c1ccc(N(C)C)cc1 (centres unmarked) [C5c]",
    "pIC50": 5.85
  },
  {
    "compound": "COc1ccc(N(Cc2cc(Cl)cs2)C(=O)Cc2cncc3ccccc23)cc1 [C2]",
    "pIC50": 5.07
  },
  {
    "compound": "CN(C)c1ccc(N(Cc2cc(Cl)cs2)C(=O)Cc2cncc3ccccc23)cc1 [C5]",
    "pIC50": 6.05
  },
  {
    "compound": "CN(C)c1ccc(N(Cc2cc(Cl)cs2)C(=O)Cc2cncc3c(O)cccc23)cc1 [C5b]",
    "pIC50": 5.35
  }
]

Tell me the measured pIC50 of CSc1ccc(N(Cc2cc(Cl)cs2)C(=O)Cc2cncc3ccccc23)cc1 [C4] , please.
5.64

Next up: CN(C)c1ccc(N(Cc2cccc(Br)c2)C(=O)Cc2cncc3ccccc23)cc1 [C5e]
5.85

What about this compound? COc1ccc(Cl)cc1CN(C(=O)Cc1cncc2ccccc12)c1ccc(N(C)C)cc1 [C5d]
5.66

----------
# System: SARS-CoV-2 Omicron BQ.1.1
# experiment_notes: microbe, parasite or virus in culture
# Type: cell-based
# conditions: Severe acute respiratory syndrome coronavirus 2, Calu-3, read-out: BQ.1.1 EC50 Calu-3, nucleocapsid
Catalogue of pEC50 values
In plain terms, pEC50 is the concentration in mol/L turned into minus its base-10 logarithm.

[
  {
    "compound": "CN(C)c1ccc(N(Cc2cc(Cl)cs2)C(=O)Cc2cncc3ccccc23)cc1",
    "pEC50": 6.52
  }
]

Consider the record given below.
What measured pEC50 goes with CC(C)(C)[C@H](NC(=O)C(F)(F)F)C(=O)N1C[C@H]2[C@@H]([C@H]1C(=O)N[C@H](C#N)C[C@@H]1CCNC1=O)C2(C)C [C7, Nirmatrelvir, reference compound] ?
6.40
